Items are presented alongside their recorded % of Max VEGF KDR pTyr Activity (at 133 nM antibody concentration), N = 2.
biological target: KDR (human, UniProt P35968 20-1356); assay: cell-based or functional assay
Sequence (P35968 20-1356): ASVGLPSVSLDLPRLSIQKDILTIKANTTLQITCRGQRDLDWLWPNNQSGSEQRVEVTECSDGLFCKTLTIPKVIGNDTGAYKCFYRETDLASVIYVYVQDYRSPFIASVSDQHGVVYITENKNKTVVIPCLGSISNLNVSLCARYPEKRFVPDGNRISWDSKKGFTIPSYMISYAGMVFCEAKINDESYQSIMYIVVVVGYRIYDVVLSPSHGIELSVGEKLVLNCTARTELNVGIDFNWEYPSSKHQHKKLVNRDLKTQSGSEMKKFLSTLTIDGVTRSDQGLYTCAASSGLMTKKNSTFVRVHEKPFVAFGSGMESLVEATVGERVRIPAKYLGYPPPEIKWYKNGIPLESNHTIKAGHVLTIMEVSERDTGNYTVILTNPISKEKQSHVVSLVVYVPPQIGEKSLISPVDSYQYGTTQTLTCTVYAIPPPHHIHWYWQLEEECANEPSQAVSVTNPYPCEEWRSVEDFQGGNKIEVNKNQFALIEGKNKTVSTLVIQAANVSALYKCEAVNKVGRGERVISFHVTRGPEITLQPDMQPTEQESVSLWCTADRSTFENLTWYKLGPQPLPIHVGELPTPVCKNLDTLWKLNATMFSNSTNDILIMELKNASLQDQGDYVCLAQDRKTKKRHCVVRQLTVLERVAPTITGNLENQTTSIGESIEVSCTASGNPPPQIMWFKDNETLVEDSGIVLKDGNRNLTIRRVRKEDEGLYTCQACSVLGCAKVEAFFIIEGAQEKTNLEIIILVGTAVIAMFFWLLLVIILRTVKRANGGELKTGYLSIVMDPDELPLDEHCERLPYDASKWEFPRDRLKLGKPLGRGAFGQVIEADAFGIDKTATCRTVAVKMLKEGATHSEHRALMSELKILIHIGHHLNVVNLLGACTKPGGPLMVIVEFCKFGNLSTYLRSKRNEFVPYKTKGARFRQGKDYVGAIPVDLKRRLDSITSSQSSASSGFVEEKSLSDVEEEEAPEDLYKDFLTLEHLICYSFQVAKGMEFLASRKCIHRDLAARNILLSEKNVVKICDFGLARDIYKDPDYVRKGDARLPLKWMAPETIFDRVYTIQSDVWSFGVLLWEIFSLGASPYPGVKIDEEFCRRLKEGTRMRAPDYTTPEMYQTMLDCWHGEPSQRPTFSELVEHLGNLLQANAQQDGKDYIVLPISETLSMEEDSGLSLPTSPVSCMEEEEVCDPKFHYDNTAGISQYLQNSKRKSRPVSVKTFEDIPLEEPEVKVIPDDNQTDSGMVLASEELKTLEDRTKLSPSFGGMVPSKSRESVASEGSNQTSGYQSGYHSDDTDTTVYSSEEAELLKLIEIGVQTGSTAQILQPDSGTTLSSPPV
Use % as the unit, but write only the number.

binder 1G6 (antibody, V domains shown) VH: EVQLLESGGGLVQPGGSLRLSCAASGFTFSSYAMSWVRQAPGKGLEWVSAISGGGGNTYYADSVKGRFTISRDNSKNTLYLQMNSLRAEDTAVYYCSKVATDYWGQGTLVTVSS VL: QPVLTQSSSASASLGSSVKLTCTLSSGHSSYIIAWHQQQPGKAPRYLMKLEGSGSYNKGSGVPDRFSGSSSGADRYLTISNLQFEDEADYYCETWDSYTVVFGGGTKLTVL , % of Max VEGF KDR pTyr Activity (at 133 nM antibody concentration), N = 2 observed: 10

binder 33B1 (antibody, V domains shown) VH: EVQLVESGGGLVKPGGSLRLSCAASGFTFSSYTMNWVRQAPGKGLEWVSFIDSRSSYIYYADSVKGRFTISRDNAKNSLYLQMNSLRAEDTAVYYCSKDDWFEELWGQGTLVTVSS VL: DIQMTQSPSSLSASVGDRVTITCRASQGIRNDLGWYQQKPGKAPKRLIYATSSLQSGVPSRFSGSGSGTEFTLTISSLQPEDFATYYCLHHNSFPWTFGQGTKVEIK , % of Max VEGF KDR pTyr Activity (at 133 nM antibody concentration), N = 2 observed: 7
